system-under-test: JAK2 (Homo sapiens, UniProt O60674)
Sequence (O60674 whole entry): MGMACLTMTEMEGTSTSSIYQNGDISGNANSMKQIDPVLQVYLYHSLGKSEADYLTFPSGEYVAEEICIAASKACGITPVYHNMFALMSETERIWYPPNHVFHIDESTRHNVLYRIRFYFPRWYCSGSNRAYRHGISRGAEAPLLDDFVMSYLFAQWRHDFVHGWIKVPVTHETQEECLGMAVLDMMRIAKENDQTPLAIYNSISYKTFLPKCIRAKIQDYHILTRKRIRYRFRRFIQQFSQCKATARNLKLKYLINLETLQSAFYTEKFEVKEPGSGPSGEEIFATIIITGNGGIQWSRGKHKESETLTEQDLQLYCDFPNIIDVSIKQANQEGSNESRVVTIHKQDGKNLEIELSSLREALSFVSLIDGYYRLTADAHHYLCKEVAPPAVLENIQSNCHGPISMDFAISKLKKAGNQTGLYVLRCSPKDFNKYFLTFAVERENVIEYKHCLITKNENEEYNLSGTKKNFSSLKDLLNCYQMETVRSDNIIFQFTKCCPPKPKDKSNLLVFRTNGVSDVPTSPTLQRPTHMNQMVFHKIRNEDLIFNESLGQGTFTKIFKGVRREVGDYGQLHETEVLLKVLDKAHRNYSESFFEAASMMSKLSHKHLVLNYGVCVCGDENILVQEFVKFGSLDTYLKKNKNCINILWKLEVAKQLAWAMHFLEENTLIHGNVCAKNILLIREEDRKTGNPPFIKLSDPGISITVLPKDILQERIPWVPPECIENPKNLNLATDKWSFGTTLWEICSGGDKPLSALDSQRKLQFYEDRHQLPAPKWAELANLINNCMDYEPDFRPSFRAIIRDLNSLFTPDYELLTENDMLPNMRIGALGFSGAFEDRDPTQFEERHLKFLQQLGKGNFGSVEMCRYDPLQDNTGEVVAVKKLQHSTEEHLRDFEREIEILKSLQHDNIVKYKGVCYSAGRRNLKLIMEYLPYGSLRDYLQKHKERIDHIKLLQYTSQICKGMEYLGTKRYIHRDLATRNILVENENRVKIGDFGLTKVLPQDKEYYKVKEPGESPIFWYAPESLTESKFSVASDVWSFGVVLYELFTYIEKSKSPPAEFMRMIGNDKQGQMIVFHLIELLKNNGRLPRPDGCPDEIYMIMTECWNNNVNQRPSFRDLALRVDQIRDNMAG
endpoint-label: pIC50
Give bare numbers, as −log10 of the molar value.

Recorded pIC50 for "O=C(c1ccccc1)c1ccc2nc3c4ccccc4c4ccccc4c3nc2c1" , please?
6.28
